Hey, just so you know, these numbers are from patent US20260069689A1.

# assayed.target: SARS-COV-2 RBD extracellular domain expressed with a C-terminal mouse IgG2a Fc (SARS-CoV-2)
# protocol: Biacore SPR, mAb captured on anti-hFc, 37 C
readout: Kd (nM)

mAb15166 (antibody, V domains shown) VH: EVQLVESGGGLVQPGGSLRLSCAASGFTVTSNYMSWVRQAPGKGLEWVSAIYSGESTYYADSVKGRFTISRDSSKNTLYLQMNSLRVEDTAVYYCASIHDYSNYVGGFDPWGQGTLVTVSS VL: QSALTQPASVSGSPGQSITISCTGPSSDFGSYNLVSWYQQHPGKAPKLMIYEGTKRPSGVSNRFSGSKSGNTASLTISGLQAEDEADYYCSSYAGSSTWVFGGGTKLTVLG = 0.126
mAb14257 (antibody, V domains shown) VH: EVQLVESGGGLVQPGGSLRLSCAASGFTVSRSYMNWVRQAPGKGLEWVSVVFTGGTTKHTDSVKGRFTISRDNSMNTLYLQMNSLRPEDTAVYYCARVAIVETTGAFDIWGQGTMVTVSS VL: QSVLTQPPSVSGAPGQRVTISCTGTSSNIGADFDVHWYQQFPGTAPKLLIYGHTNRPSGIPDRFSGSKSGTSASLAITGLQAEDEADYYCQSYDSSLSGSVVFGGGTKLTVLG = 0.121
mAb15164 (antibody, V domains shown) VH: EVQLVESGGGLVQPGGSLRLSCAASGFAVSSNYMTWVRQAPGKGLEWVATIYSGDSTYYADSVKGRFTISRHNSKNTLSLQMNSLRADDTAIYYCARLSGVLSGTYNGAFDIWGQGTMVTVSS VL: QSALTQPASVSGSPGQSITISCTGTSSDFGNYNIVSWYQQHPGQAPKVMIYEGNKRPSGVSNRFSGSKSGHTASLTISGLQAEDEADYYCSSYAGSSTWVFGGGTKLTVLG = 0.0518
mAb13458 (antibody, V domains shown) VH: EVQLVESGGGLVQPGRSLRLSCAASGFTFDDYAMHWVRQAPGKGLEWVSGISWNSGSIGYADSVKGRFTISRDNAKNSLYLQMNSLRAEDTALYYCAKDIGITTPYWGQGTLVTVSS VL: AIQMTQSPSSLSASVGDRVTITCRASQDIRNDLGWYQQKPGKAPKLLIYSASSLQTGVPSRFSGSGSGTDFTLTISSLHPEDFATYYCLQDYWYTWTFGQGTKVEIKR = 0.0784
mAb15170 (antibody, V domains shown) VH: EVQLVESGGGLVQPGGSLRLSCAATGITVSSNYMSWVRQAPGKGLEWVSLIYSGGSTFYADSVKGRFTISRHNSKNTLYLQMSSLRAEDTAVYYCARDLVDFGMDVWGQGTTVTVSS VL: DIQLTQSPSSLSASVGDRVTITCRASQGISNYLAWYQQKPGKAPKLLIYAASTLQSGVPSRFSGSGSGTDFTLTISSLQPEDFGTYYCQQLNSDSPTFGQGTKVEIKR = 0.091
mAb15163 (antibody, V domains shown) VH: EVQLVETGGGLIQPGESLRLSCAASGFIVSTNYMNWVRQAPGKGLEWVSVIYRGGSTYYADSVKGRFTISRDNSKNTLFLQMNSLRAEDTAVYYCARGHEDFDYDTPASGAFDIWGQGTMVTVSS VL: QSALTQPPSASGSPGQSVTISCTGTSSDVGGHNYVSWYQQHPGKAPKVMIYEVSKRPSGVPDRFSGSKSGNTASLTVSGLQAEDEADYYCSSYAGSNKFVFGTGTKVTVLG = 0.0601
mAb15160 (antibody, V domains shown) VH: EVQLVESGGGLVQPGGSLRLSCSASGFTFSRYAMYWVRQAPGKGLEYVSAISSDGGSTYDADSVKGRFTISRANSKNTLYLQMSSLRAEDTAVYYCVKGLRELLYYYYGMDVWGQGTTVTVSS VL: DIQMTQSPSSLSASVGDRVTITCRAGQSISSFLNWYQQKPGKAPKLLIYAASSLQSGVPSRFSGSGSGTDFTLTISSLQPEDFATYYCQQSYITPFTFGPGTKVDIKR = 0.181
mAb14294 (antibody, V domains shown) VH: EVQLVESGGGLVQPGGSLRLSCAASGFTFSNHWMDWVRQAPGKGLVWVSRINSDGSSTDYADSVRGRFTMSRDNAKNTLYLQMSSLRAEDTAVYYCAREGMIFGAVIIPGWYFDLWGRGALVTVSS VL: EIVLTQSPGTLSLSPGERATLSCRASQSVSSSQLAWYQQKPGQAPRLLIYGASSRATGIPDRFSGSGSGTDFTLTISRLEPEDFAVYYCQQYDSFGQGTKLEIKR = 0.0386
mAb14235 (antibody, V domains shown) VH: QITLKESGPTLVKPTQTLTLTCTFSGFSLNTGGVGVGWIRQPPGNALEWLALIYWDDDKRYNPSLKTRLTISKDTSKNQVVLTMTNMDPVDTATYFCAHLTIAVIVDFWGQGTLVTVSS VL: QSALTQPASVSGSPGQSITISCTATSSDVGTYNYVSWFQHHPGKAPKLMIYEVTNRPSGVSNRFSGSKSGNTASLTISGLQAEDEADYYCSSYTTTSIVFGGGTKLTVLG = 0.0612
mAb14284 (antibody, V domains shown) VH: QITLKESGPTLVKPTQTLTLTCTFSGFSFSTSGVGVGWIRQPPGKTLEWLALIYWDDDKRYSPSLKSRLTITKDTSKNQVVLTMTNMDPVDTATYFCAHHGIPTIFGYWGQGALVTVSS VL: QSALTQPASVSGSPGQSITISCTGTSSDLGVFNYVSWYQQHPGKAPKLMIYEVTNRPSGVSNRFSGSKSGNTASLTISGLQAEDEADYYCSSYTTSSTVFGGGTKLTVLG = 0.027
